# protocol.notes: chemical genetic growth profiling, strain panel (AID 1159580);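 further: tested at 20 µM; growth read once vehicle control cultures reached saturation at 30 °C; 1 = growth at the plate median or of vehicle wells; lower values mean less growth of the strain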
# stated.conditions: S. cerevisiae deletion strains, growth OD, locus YER002W, strain NOP16, hits give low values
About 2,000 (36%) of roughly 5,500 compounds were called active. Inconclusive results (about 18%) are left out. The list shows a part of the results.
Recorded normalized growth values for a group of compounds are listed next.
// return just the number, without any unit appended

// solved cases for normalized growth follow
{"compound": "NCC(O)c1cc(O)c(O)cc1F (stereo not drawn)", "normalized growth": 1.01}
{"compound": "Nc1ncnc2c1nc(Br)n2C1OC2COP(=O)(O)O[C@@H]2C1O (stereo partly drawn)", "normalized growth": 0.996}
{"compound": "CCCCCCCCCCCCCCCCOCC(COCC(F)(F)F)OP(=O)(O)OCO (stereo not drawn)", "normalized growth": 0.995}
{"compound": "NC(=O)N1c2ccccc2C=Cc2ccccc21", "normalized growth": 1.04}
{"compound": "CCN(CC)C(=O)c1ccc(O)c(OC)c1", "normalized growth": 1.03}

# input Note normalized growth for the compound shown: `CN1CCN(CC(=O)N2c3ccccc3C(=O)Nc3cccnc32)CC1`
# output 0.986

# input Return normalized growth (reported value) for this compound: `NC(=O)CNCCC(c1ccccc1)c1ccccc1`
# output 0.969

# input Please give measured normalized growth of the following entry: O=C(O)CC1CCCc2ccccc2C1O (stereo not drawn)
# output 1.01
